Attribution: patent US6124449

systemName: TGF-beta1 (hTGF-beta1) (Homo sapiens, UniProt P01137 P01137:279-390)
Sequence (P01137 279-390, one chain of several): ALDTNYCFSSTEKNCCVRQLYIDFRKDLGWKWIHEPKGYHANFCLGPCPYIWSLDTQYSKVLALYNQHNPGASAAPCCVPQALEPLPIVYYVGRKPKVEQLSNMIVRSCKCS
measurementNotes: filter; biphasic; Kd1 13.5±4.2 nM
conditions: tags: R&D Systems; biotinylated form (NFTG0) used for BIAcore; chain copies: 2
testReadout: Kd (pM)
Give your result in pM as a bare value.

Prompt: Give recorded Kd. 40-61,76 (ssRNA, 2'-F C and U) RNA: GGGAGGACGAUGCGGUUAGGGGCGUCAACACCGCUAUUACAAUCUUCGCUUUCCCAGACGACUCGCCCGA
Response: 1
